Cited source: ChEMBL document CHEMBL1201862

system: A498; test: NCI tumour cell line growth inhibition, 48 h
Activity calls are given as the source filed them. No stated cut-off is given here; in the data, active = GI50 up to about 1.1 µM and inactive = higher.
As shown below, each of these compounds has a reported GI50 value.

Input: Answer with the recorded GI50 for the compound listed here: `NS(=O)(=O)c1nnc(NC(=O)c2ccccc2)s1`
Output: > 100 µM (inactive)

Input: Supply GI50 value. Item: `CN(C)c1ccc(-c2cc(O)c3cc4c(cc3n2)OCO4)cc1`
Output: > 100 µM (inactive)

Input: Answer with the recorded GI50 for the compound listed here: `COc1ccc(-c2nc3c(nc2-c2ccc(OC)cc2)N(C)S(=O)(=O)N=C3N)cc1`
Output: 22.5 µM (inactive)

Input: Recall and state the measured GI50 for `CN(C)Cc1c(O)ccc2c1c1c(n2C)C(=O)c2ccccc2C1=O` .
Output: 4.43 µM (inactive)

Input: Assign GI50 to the following record: `O=[N+]([O-])c1cccc(S(=O)(=O)N/N=C/c2cc(I)cc([N+](=O)[O-])c2O)c1`
Output: > 100 µM (inactive)

Input: Entry `COc1cccc(C2C(C(=O)Nc3cc(=O)n(C)c(=O)n3C)=C(C)NC(C)=C2C(=O)Nc2cc(=O)n(C)c(=O)n2C)c1O` needs its GI50 filled in; supply it.
Output: > 100 µM (inactive)

Input: Identify the reported GI50 for the following entry. `COc1cccc(-c2c(C#N)c(N)nc3c2CCS(=O)(=O)c2ccc(C)cc2-3)c1`
Output: > 100 µM (inactive)

Input: Give reported GI50 value for `O=C1CN(c2ccccc2)C(=O)CN1NCNN1CC(=O)N(c2ccccc2)CC1=O`
Output: > 100 µM (inactive)

Input: // fetch GI50 given entry C=C[C@@]1(C)CC2(C=C(CO)C(O)O2)Oc2c1c(=O)oc1cccc(C)c21 (stereo not given in full)
Output: 24.2 µM (inactive)

Input: Please supply the value of reported GI50 for the item CCOC(=O)C(=CNc1ccc(N(C2=NCC(C)S2)c2ccc(F)c(Cl)c2)cc1)C(=O)OCC (stereo not given)
Output: 21.9 µM (inactive)

Input: # return recorded GI50 for entry CC(=O)N1CN2C(=O)CCC2c2ccccc21 (stereo not given)
Output: > 100 µM (inactive)

Input: Respond only with GI50 recorded for CCCC(=O)OCC1OC(n2cc(F)c(=O)[nH]c2=O)C(F)C1OC(=O)CCC (stereo not given)
Output: 6.38 µM (inactive)
